# ASSAY_COMMENT: gradient 5% acetonitrile 3 min, to 50% in 2 min, to 85% in 15 min, held 3 min, 100 µL/min
# APPLIED_CONDITIONS: column: Zorbax Extend-C18 2.1 x 50 mm; eluents: water / acetonitrile, 0.1% formic acid
In this section we review reported RP-LC retention time values for a set of compounds.
Report the figure in s without appending any unit label.

Endpoint output: RP-LC retention time of O=C(Nc1ccc2c(c1)N(C(=O)c1ccco1)CCC2)Oc1ccccc1 . Value?
850

What does the record list as RP-LC retention time for O=C(c1n[nH]c(=O)c2ccccc12)N1CCCC1c1nc(CCOCC2CCCC2)no1 (centres undefined) ?
848

RP-LC retention time for Cc1ccc(Cl)c(NC(=O)C2CCc3nc(N4CCOCC4)ncc3C2)c1 (centres undefined) ?
865

Now let's try a different one.
# get_value(readout='RP-LC retention time', item= O=C(Nc1cnc2ccccc2c1)c1cccc([N+](=O)[O-])c1 )
717
